Let's look at some binders and their measured Kd.
- target-desc: T1, recombinant human LAG3 expressed with a C-terminal myc-myc-hexahistidine tag (human, UniProt P18627 29-450)
- T1 construct: also called hLAG3-mmh; hLAG3.mmh
- T1 sequence (P18627 other isoform, or with tags, fused parts or gaps limits assumed): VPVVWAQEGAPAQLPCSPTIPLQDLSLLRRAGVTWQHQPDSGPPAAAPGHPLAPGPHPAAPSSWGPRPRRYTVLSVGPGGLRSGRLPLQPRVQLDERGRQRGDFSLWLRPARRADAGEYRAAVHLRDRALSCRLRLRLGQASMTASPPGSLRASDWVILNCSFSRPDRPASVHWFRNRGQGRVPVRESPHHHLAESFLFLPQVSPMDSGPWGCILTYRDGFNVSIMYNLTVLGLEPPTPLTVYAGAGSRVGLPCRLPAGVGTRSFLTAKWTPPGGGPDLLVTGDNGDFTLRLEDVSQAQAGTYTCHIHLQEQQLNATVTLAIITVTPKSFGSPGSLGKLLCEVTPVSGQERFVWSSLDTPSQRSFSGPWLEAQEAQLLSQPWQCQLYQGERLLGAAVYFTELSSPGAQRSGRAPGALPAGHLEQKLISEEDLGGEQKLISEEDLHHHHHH
- procedure-details: SPR, mAb captured, 37 C
Report the figure in pM without appending any unit label.

Below: 2 binders and their reported Kd.
binder	Kd / pM
H4H15479P (antibody, human IgG4, V domains shown) VH: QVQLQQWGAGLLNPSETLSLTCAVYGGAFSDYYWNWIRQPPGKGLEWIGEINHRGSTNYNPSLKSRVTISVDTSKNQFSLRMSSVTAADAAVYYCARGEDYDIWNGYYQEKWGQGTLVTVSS VL: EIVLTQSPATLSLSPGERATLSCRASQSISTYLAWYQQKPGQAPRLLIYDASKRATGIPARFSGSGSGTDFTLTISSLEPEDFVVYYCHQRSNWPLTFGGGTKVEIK	32.1
H4H14813N (antibody, human IgG4, V domains shown, H4H = human IgG4 Fc with S108P hinge mutation) VH: QVQLQQWGAGLLKPSETLSLTCAVYGGSFSGYYWNWIRQPPGKGLEWVGEISHRGSTNYNPSLKSRVTISLDTSKNQFSLKLTSVTAADTAVYYCSRDEELEFRFFDYWGQGTLVTVSS VL: EIVLTQSPATLSLSPGERATLSCRASQSVSSYLAWYQQKPGQAPRLLVYGASNRATGIPARFSGSGSGTDFTLTISSLEPEDFAFYYCQQRSNWPLTFGGGTKVEIK	284

Note: attention shifts to another entry.
Ask: Which Kd value belongs to H4H15483P (antibody, human IgG4, V domains shown, H4H = human IgG4 Fc with S108P hinge mutation) VH: QVQLQQWGAGLLPPSETLSLICAVYGGSFSGYYWSWIRQPPGKGLEWIGEINHRGSTNYNPSLKSRATISVDTSKNQFSLKLSSVTAADTAVYYCSRGEDYYDSSGYSYYFDYWGQGTLVTVSS VL: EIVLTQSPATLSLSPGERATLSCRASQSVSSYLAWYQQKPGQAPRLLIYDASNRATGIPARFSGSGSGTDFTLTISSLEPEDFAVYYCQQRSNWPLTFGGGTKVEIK ?
Reply: 1430
